- protocol.description: Plasma concentrations of A1 and A2 after oral administration, rabbits
- Assay type: in vivo
- experimental.setup: rabbit, after mixture A1 A2 574 mg/m^2 p.o., 15 MIN, n = 5
Exercise: state measured concentration at 0.25 h for each of the compounds provided.
Answers are plain numbers, in µM.

C[S+]([O-])CCNC(=O)N(CCCl)N=O (centres unmarked)
11.7

[in] Entry under review: C[S+]([O-])CCN(N=O)C(=O)NCCCl (centres unmarked) . Reported concentration at 0.25 h?
[out] 28.5

* * *

- protocol.description: Plasma concentrations of A1 and A2 after oral administration, rats
- Format: in vivo
- experimental.setup: rat, after mixture A1 A2 574 mg/m^2 p.o., 3 H, n = 5
measured.attribute: concentration (µM)
Give bare numbers, in µM.

C[S+]([O-])CCN(N=O)C(=O)NCCCl (centres unmarked) [Compound A1]
7.3

As a next step, examine the molecule that follows.
[in] Entry under review: C[S+]([O-])CCNC(=O)N(CCCl)N=O (centres unmarked) [Compound A2] . Reported concentration?
[out] 2.9

* * *

- protocol.description: Plasma concentrations of A1 and A2 after oral administration, mice
- Assay type: in vivo
- experimental.setup: mouse, after CNCC 500 mg/m^2 p.o., 1 H, n = 10
Exercise: state measured concentration at 1 h for each of the molecules provided.
Give bare numbers, in µM.

C[S+]([O-])CCN(N=O)C(=O)NCCCl (centres unmarked) [Compound A1]
37.1

As a next step, examine the molecule that follows.
[in] Entry under review: C[S+]([O-])CCNC(=O)N(CCCl)N=O (centres unmarked) [Compound A2] . Reported concentration at 1 h?
[out] 19

* * *

Exercise: state measured concentration at 1.5 h for each of the compounds provided.
- protocol.description: Plasma concentrations of A1 and A2 after oral administration, mice
- Assay type: in vivo
- experimental.setup: mouse, after CNCC 500 mg/m^2 p.o., 1 H 30 MIN, n = 10
Give bare numbers, in µM.

C[S+]([O-])CCNC(=O)N(CCCl)N=O (centres unmarked)
12.7

[in] Entry under review: C[S+]([O-])CCN(N=O)C(=O)NCCCl (centres unmarked) . Reported concentration at 1.5 h?
[out] 26.2

* * *

- protocol.description: Plasma concentrations of A1 and A2 after oral administration, mice
- Format: in vivo
- experimental.setup: mouse, after CNCC 500 mg/m^2 p.o., 2 H, n = 10
measured.attribute: concentration at 2 h

C[S+]([O-])CCN(N=O)C(=O)NCCCl (centres unmarked)
20.2 µM

[in] Entry under review: C[S+]([O-])CCNC(=O)N(CCCl)N=O (centres unmarked) . Reported concentration at 2 h?
[out] 9.9 µM

* * *

- protocol.description: Plasma concentrations of A1 and A2 after oral administration, rats
- Assay type: in vivo
- experimental.setup: rat, after CNCC 500 mg/m^2 p.o., 2 H, n = 5
Exercise: state measured concentration at 2 h for each of the compounds provided.
Please report the result as a number followed by the unit.

C[S+]([O-])CCNC(=O)N(CCCl)N=O (centres unmarked)
6.4 µM

[in] Entry under review: C[S+]([O-])CCN(N=O)C(=O)NCCCl (centres unmarked) . Reported concentration at 2 h?
[out] 12.7 µM

* * *

- protocol.description: Plasma concentrations of A1 and A2 after oral administration, rabbits
- Type: in vivo
- experimental.setup: rabbit, after mixture A1 A2 574 mg/m^2 p.o., 4 H 30 MIN, n = 5
- Procedure: The plasma absorption and clearance kinetics of the products A1 and A2 according to the invention were studied on different animal species after oral administration. A mixture A1 A2 in the proportions 70%/30% was used so as to be able to make a comparison with CNCC. The mixture A1 A2 and the CNCC were administered at equivalent doses and the plasma concentrations of A1 and A2 were measured as a function of time. cl (a) Experimental protocol […]
measured.attribute: concentration at 4.5 h

C[S+]([O-])CCNC(=O)N(CCCl)N=O (centres unmarked)
700 nM

As a next step, examine the compound that follows.
[in] Entry under review: C[S+]([O-])CCN(N=O)C(=O)NCCCl (centres unmarked) . Reported concentration at 4.5 h?
[out] 3800 nM
